B1: Chromodomain-helicase-DNA-binding protein 7, residues 2564 to 2605; numbered along this chain, Q9P2D1 (parent)
chain: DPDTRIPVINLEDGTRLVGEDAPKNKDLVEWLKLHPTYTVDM

# Variants of: B1
# protocol-summary: abundance fitness (aPCA) (normalised: wild type 0, dead -1); higher = more abundant; growth selection in yeast, the domain comes from the species named
# stated-conditions: Homo sapiens
# binning rule on abundance fitness: bottom bin (below -0.4), middle bin (-0.4 to below -0.2), top bin (-0.2 or more)

• DPDTRIPVINLEDGTRLVGEDAPKNKDLNEWLKLHPTYTVDM [V29N] = top bin
• DPDTRIPVINLEDGTRLVGEDAPKNKDLVEWRKLHPTYTVDM [L32R] = middle bin
• DPMTRIPVINLEDGTRLVGEDAPKNKDLVEWLKLHPTYTVDM [D3M] = top bin
• DPDTRIPVINLEDGTRLVGEDLPKNKDLVEWLKLHPTYTVDM [A22L] = bottom bin
• DPDTRYPVINLEDGTRLVGEDAPKNKDLVEWLKLHPTYTVDM [I6Y] = bottom bin
• DPDTRIPVINLEDGTRLDGEDAPKNKDLVEWLKLHPTYTVDM [V18D] = top bin
• DPDTRIPVINLEDGTRLVGEDAPKNKDLVEWLKLHPGYTVDM [T37G] = top bin
• DPDTRIPVRNLEDGTRLVGEDAPKNKDLVEWLKLHPTYTVDM [I9R] = top bin
• DPDTRIPVINLEDGTRLVAEDAPKNKDLVEWLKLHPTYTVDM [G19A] = middle bin
• DPDTRIPVINLEDGTRLVGEDPPKNKDLVEWLKLHPTYTVDM [A22P] = bottom bin
• DPDTRIPVINLEDGTRLVGEDAPKNKRLVEWLKLHPTYTVDM [D27R] = bottom bin
• DPDTRIPVINLEDGTRLVGEDAPKNKDLWEWLKLHPTYTVDM [V29W] = bottom bin
• DPDTRIPVINLEDGTRLVGEDEPKNKDLVEWLKLHPTYTVDM [A22E] = bottom bin
• DPDTRIPVINLEDGTRLVGMDAPKNKDLVEWLKLHPTYTVDM [E20M] = middle bin
• DPDTRIPVINLEDGTRLVGLDAPKNKDLVEWLKLHPTYTVDM [E20L] = middle bin
• DPDTRIPVINLEDGTRLVGEDAPKNKDLVEWTKLHPTYTVDM [L32T] = middle bin
• DPDTRIPVINLEDGTRLVGEDAFKNKDLVEWLKLHPTYTVDM [P23F] = bottom bin
• DPDTRIPVINLEDGTRLVGEPAPKNKDLVEWLKLHPTYTVDM [D21P] = middle bin
• DPDTRIPVINLEDGTRLVGEDAPKNKDLTEWLKLHPTYTVDM [V29T] = top bin
• DPITRIPVINLEDGTRLVGEDAPKNKDLVEWLKLHPTYTVDM [D3I] = bottom bin
• DPDTRIPVINLEDQTRLVGEDAPKNKDLVEWLKLHPTYTVDM [G14Q] = top bin
